Data origin: patent US20200362047A1

subject of test: T1, human CD137 expressed on the surface of CHO cells (human, UniProt Q07011 24-255)
T1 construct: Also used for the Jurkat reporter cells that express human CD137 (functional rows); also called CHO human CD137 cells; CHO huCD137
experiment notes: FMAT ligand inhibition, CD137 Ligand on CHO human CD137 cells
Reported IC50 by item:

binder	IC50, nM
Humabody VH 1.18 (VHH, human single VH domain) VH: EVQLVESGGGLVQPGGSLRLSCAASGFTFSTHWMNWARQAPGKELEWVANINQDGSEKYYVDSVEGRFTISRDNANNSLYLQMNSLRAEDTAVYYCARGGVGYGDSHFGMDVWGLGTTVTVSSHHHHHH	1.2
1.1-6GS-1.1 (VHH, bivalent tandem VH, monospecific for CD137; also called bivalent Humabody VH 1.1; not shown: His tag) EVQLVESGGGLVQPGGSLRLSCAASGFTFSSHWMTWFRQAPGKGLEWVAHIKEDGSEKYYEDSVEGRFTVSRDNAKNSVYLQMNSLRAEDTAVYYCARGGDGYSDSHFGVDVWGQGTTVTVSSGGGGSGGGGSGGGGSGGGGSGGGGSGGGGSEVQLVESGGGLVQPGGSLRLSCAASGFTFSSHWMTWFRQAPGKGLEWVAHIKEDGSEKYYEDSVEGRFTVSRDNAKNSVYLQMNSLRAEDTAVYYCARGGDGYSDSHFGVDVWGQGTTVTVSS	0.28
